Data origin, for the record: patent US8426429B2

- target: β-secretase (BACE) (Homo sapiens, UniProt P56817)
- Construct: purchased Panvera
- Sequence (P56817 46-501): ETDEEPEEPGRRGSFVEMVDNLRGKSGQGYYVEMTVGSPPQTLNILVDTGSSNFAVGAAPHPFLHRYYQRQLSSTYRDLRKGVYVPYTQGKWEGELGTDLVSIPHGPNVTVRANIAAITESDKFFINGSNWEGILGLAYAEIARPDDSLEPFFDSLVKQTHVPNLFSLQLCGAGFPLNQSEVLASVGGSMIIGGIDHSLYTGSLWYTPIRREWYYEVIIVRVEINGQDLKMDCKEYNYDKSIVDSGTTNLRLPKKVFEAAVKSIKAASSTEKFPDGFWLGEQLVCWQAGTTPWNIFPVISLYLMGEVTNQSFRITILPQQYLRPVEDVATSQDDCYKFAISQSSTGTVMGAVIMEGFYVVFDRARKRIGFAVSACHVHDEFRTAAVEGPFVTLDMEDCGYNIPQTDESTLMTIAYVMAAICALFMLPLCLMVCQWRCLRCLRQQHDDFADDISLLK
- assayName: BACE % Inhibition Assay ((Aedens)-[…]-(Dabcyl K-amide) substrate)
- Type: biochemical
- conditionSet: 10 μM compound; % error ±10%
Reported % Inhibition values are given for each entry in this list.

Reference set, count: 3
Item CN(C(=O)[C@@H]1CC[C@H](N2Cc3cc(Oc4ccccc4)ccc3N=C2N)C1)C1CCCCC1 has what recorded % Inhibition?
<30%

Which % Inhibition reading was recorded for the compound CN(C(=O)[C@@H]1CCCC[C@@H]1N1Cc2cc(Oc3ccccc3)ccc2N=C1N)C1CCCCC1 ?
<30%

Returns the measured % Inhibition for the input compound. Input: Cc1ccc(S(=O)(=O)NCCN2Cc3cc(Oc4ccccc4)ccc3N=C2N)cc1
58%

Continuing:
I'd like to know its % Inhibition. The compound in question is CN(C(=O)c1ccc(CN2Cc3cc(Oc4ccccc4)ccc3N=C2N)cc1)C1CCCCC1
53%

---

- target: β-secretase (BACE) (Homo sapiens)
- Construct: purchased Panvera
- assayName: BACE FS1 % Inhibition Assay
- Format: biochemical
- conditionSet: 3 μM test compound
Listed here are compounds together with their documented % Inhibition (FS).
Reply with just the number (in %).

What value of % Inhibition (FS) has been recorded for this entry: CN(C(=O)c1cccc(CN2Cc3cc(Sc4ccc5ccccc5c4)ccc3N=C2N)c1)C1CCCCC1
63

More entries:
Please look up its % Inhibition (FS): C=CCc1cccc(OC)c1Oc1ccc2c(c1)CN(Cc1cccc(C(=O)N(C)C3CCCCC3)c1)C(N)=N2
32

---

Each entry below carries its recorded % Inhibition (FS).
- target: β-secretase (BACE) (Homo sapiens)
- Construct: purchased Panvera
- assayName: BACE FS1 % Inhibition Assay
- Format: biochemical
- conditionSet: 3 μM test compound
The reply should contain only the number, in %.

Sample NC1=Nc2ccc(Oc3ccccc3)cc2CN1C1CCCCN(C(=O)C23CC4CC(CC(C4)C2)C3)C1 (centres unmarked) [Compound 550] — what was its % Inhibition (FS)?
67

What measured % Inhibition (FS) goes with NC1=Nc2ccc(-c3ccccc3Cl)cc2CN1CCNC(=O)C1CCCC1 [Compound 650] ?
112

Return reported % Inhibition (FS); argument: CCc1ccccc1Sc1ccc2c(c1)CN(Cc1cccc(C(=O)N(C)C3CCCCC3)c1)C(N)=N2 [Compound 406]
50

Item under review: COc1ccc(Sc2ccc3c(c2)CN(Cc2cccc(C(=O)N(C)C4CCCCC4)c2)C(N)=N3)cc1 [Compound 410] . Reported % Inhibition (FS)?
50

# evaluate next
Recorded % Inhibition (FS) for NC1=Nc2ccc(-c3ccccc3-c3ccccc3)cc2CN1CCNC(=O)C1CCCCC1 [Compound 544] , please?
51

---

% Inhibition (FS) listing for selected molecules.
- target: β-secretase (BACE) (Homo sapiens, UniProt P56817)
- Construct: purchased Panvera
- assayName: BACE FS1 % Inhibition Assay
- Assay type: biochemical
- conditionSet: 1 μM compound; FS1 substrate
Lab book: enter the figure in %, no units written.

// % Inhibition (FS) lookup, key: COc1ccccc1-c1ccc2c(c1)CN([C@@H](CCC(=O)N(C)Cc1cc(C)no1)C1CCCCC1)C(N)=N2 [Compound 718]
30

Now for the molecule whose % Inhibition (FS) we want.
Give its % Inhibition (FS) value. Item: COC(=O)C1CCCC(N(C)C(=O)CCC(C2CCCCC2)N2Cc3cc(Oc4ccccc4)ccc3N=C2N)C1 (mixture of isomers) [Compound 777]
97
